# Assayed target: IDO1 (Homo sapiens, UniProt P14902)
# Sequence (P14902 whole entry): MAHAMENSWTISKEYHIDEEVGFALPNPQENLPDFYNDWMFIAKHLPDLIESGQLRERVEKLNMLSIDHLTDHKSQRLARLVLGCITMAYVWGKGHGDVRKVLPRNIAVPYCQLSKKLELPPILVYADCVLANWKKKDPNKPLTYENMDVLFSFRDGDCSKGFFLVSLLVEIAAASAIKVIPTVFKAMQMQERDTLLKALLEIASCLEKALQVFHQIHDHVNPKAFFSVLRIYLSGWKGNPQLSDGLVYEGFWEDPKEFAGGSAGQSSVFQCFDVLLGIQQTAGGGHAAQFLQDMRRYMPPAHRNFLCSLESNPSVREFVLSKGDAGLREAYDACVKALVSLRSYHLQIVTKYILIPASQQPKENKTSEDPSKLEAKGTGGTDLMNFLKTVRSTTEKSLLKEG
# Method: IDO1 Cellular Assay in HeLa Cells Stimulated with IFNγ
# Type: cell-based
# Test conditions: IFNγ 100 ng/mL, 300 uM L-tryptophan, about 48 hours incubation, fluorescence readout, read-out: IDO1 HeLa Cell Assay, IC50
Parameter measured: IC50 (nM)

For orientation, consider the following solved cases.
N#Cc1cccc(C(=O)Nc2ccc([C@@H](O)c3nc4cc(C(F)(F)F)cnc4[nH]3)cn2)c1	6220
N#Cc1cccc(C(=O)Nc2ccc(C3(c4nc5cc(C(F)(F)F)cnc5[nH]4)CCC3)cn2)c1	23.5
COc1cccc2[nH]c(C3(c4ccc(NC(=O)c5cccc(Cl)c5)nc4)CCC3)nc12	10.1
Cc1cccc2nc(C3(c4ccc(NC(=O)c5cccc(Cl)c5)nc4)CCC3)[nH]c12	10.2
O=C(Nc1ccc(C2(c3nc4ncc(C(F)(F)F)cc4[nH]3)CCC2)cn1)c1cccc(Cl)c1	5.66

a: N#Cc1cccc(C(=O)Nc2ccc(C3(c4nc5cc(C#N)ccc5[nH]4)CCC3)cn2)c1
b: COc1ccc2nc(C3(c4ccc(NC(=O)c5cccc(Cl)c5)nc4)CCC3)[nH]c2c1
c: N#Cc1cccc(C(=O)Nc2ccc(C3(c4nc5cccc(CCO)c5[nH]4)CCC3)cn2)c1
// ascending sort on recorded IC50 Use the labels to give the requested order.
b, a, c
(b: 5.62 nM, a: 12.5 nM, c: 24.8 nM)

P: O=C(Nc1ccc(C2(c3nc4cccc(CCCO)c4[nH]3)CCC2)cn1)c1cccc(Cl)c1
Q: O=C(Nc1ccc(C2(c3nc4ncc(Br)cc4[nH]3)CCC2)cn1)c1cccc(Cl)c1
R: N#Cc1cccc(C(=O)Nc2ccc(C(O)c3nc4cc(C(F)(F)F)cnc4[nH]3)cn2)c1 (centres unmarked)
S: Cc1ccc2nc(C3(c4ccc(NC(=O)c5cccc(Cl)c5)nc4)CCC3)[nH]c2c1
T: O=C(Nc1ccc(C2(c3nc4c([nH]3)CCCC4)CCC2)cn1)c1cccc(Cl)c1
Could you please order the items by IC50, going from the lowest number to the highest? Answer by listing the labels in the requested order.
S, P, Q, T, R

---

# Assayed target: IDO1 (Homo sapiens)
# Method: IDO1 Cellular Assay in HeLa Cells Stimulated with IFNγ
# Assay type: cell-based
# Test conditions: IFNγ 100 ng/mL, 300 uM L-tryptophan, about 48 hours incubation, fluorescence readout, read-out: IDO1 HeLa Cell Assay, IC50
pIC50: −log10 of the molar value.
Parameter measured: pIC50

Answered examples (4):
N#Cc1cccc(C(=O)Nc2ccc(C3(c4nc5cc(C#N)cnc5[nH]4)CCC3)cn2)c1	7.34
N#Cc1cccc(C(=O)Nc2ccc(C3(c4nc5ncc(C(F)(F)F)cc5[nH]4)CCC3)nc2)c1	8.30
CO[C@@H](c1ccc(NC(=O)c2cccc(C#N)c2)nc1)c1nc2cc(C(F)(F)F)cnc2[nH]1	7.02
O=C(Nc1ccc(C2(c3nc4ccc(Cl)cc4[nH]3)CCC2)cn1)c1cccc(Cl)c1	8.72

1: Cc1ccc2nc(C3(c4ccc(NC(=O)c5cccc(Cl)c5)nc4)CCC3)[nH]c2c1C
2: O=C(Nc1ccc(C2(c3nc4ccc(OC(F)(F)F)cc4[nH]3)CCC2)cn1)c1cccc(Cl)c1
Could you check which of 1 and 2 has a smaller value for pIC50? Give the label under which the chosen entry appears.
2
(2: 7.85, 1: 8.28)

Sourced from patent US11103493B2
